- test: OPTIMA II: mitomycin plasma concentrations
- Format: in vivo, human
- experimental.conditions: human, plasma, other: instillation; read-out: Mitomycin plasma concentration, mean (standard deviation)
parameter: concentration at 6 h (ng/mL)
Numbers only, in ng/mL.

Ask: Find the recorded concentration at 6 h belonging to CO[C@@]12[C@H](COC(N)=O)C3=C(C(=O)C(C)=C(N)C3=O)N1C[C@@H]1N[C@@H]12 and report it.
Result: 0.32

* * *

- test: OPTIMA II: mitomycin plasma concentrations
- Format: in vivo, human
- experimental.conditions: human, plasma, other: instillation; read-out: Mitomycin plasma concentration, mean (standard deviation)
parameter: concentration at 1 h

Ask: # input compound: CO[C@@]12[C@H](COC(N)=O)C3=C(C(=O)C(C)=C(N)C3=O)N1C[C@@H]1N[C@@H]12 [Mitomycin] ; wanted: its concentration at 1 h
Result: 0.6 ng/mL

* * *

- test: OPTIMA II: mitomycin plasma concentrations
- Assay type: in vivo, human
- experimental.conditions: human, plasma, other: instillation; read-out: Concentration-time Curve (AUC) - Mean (standard deviation)
parameter: AUC (ng·h/mL)
One number for each entry, in ng·h/mL.

Ask: Sample CO[C@@]12[C@H](COC(N)=O)C3=C(C(=O)C(C)=C(N)C3=O)N1C[C@@H]1N[C@@H]12 — what was its AUC?
Result: 5.69

* * *

- test: OPTIMA II: mitomycin plasma concentrations
- Type: in vivo, human
- experimental.conditions: human, plasma, other: instillation; read-out: Mitomycin plasma concentration, mean (standard deviation)
parameter: concentration at 4 h

Ask: Requested read-out: concentration at 4 h. Entry: CO[C@@]12[C@H](COC(N)=O)C3=C(C(=O)C(C)=C(N)C3=O)N1C[C@@H]1N[C@@H]12 [Mitomycin]
Result: 1.93 ng/mL

* * *

- test: OPTIMA II: mitomycin plasma concentrations
- Type: in vivo, human
- experimental.conditions: human, plasma, other: instillation; read-out: Mitomycin plasma concentration, mean (standard deviation)
parameter: concentration at 5 h (ng/mL)
Answers are plain numbers, in ng/mL.

Ask: What value of concentration at 5 h has been recorded for this entry: CO[C@@]12[C@H](COC(N)=O)C3=C(C(=O)C(C)=C(N)C3=O)N1C[C@@H]1N[C@@H]12 [Mitomycin]
Result: 0.57
